assayMethodText: Photophysical properties and fluorescence quantum yields of Si-rhodamines in PBS pH 7.4
Type: physicochemical
propertyMeasured: λem (nm)
Give the number; nm is assumed, so skip it.

Some solved entries appear below for comparison.
COc1cc(C)c(C2=C3C=CC(=[N+](C)C)C=C3[Si](C)(C)c3cc(N(C)C)ccc32)cc1N : 669
COc1cc(C2=C3C=CC(=[N+](C)C)C=C3[Si](C)(C)c3cc(N(C)C)ccc32)c(OC)c(-n2cc(CCC(=O)NCCO)nn2)c1 : 671
CN(C)c1ccc2c(c1)[Si](C)(C)C1=CC(=[N+](C)C)C=CC1=C2c1cc(-n2cc(CCC(=O)NCCO)nn2)cc2c1OCCO2 : 668
COc1cc(N)c(OC)c(C2=C3C=CC(=[N+](C)C)C=C3[Si](C)(C)c3cc(N(C)C)ccc32)c1 : 672
CN(C)c1ccc2c(c1)[Si](C)(C)C1=CC(=[N+](C)C)C=CC1=C2c1cc(N)cc2c1OCCO2 : 667
COc1cc(N)cc(C2=C3C=CC(=[N+](C)C)C=C3[Si](C)(C)c3cc(N(C)C)ccc32)c1OC : 665
CN(C)c1ccc2c(c1)[Si](C)(C)C1=CC(=[N+](C)C)C=CC1=C2c1ccc(N)c2ccccc12 : 669
COc1cc(OC)c(-n2cc(CCC(=O)NCCO)nn2)cc1C1=C2C=CC(=[N+](C)C)C=C2[Si](C)(C)c2cc(N(C)C)ccc21 : 668
COc1cc(C)c(C2=C3C=CC(=[N+](C)C)C=C3[Si](C)(C)c3cc(N(C)C)ccc32)cc1N=[N+]=[N-] : 666
COc1ccc(N=[N+]=[N-])cc1C1=C2C=CC(=[N+](C)C)C=C2[Si](C)(C)c2cc(N(C)C)ccc21 : 667

Fill in: λem of COc1cc(C)c(C2=C3C=CC(=[N+](C)C)C=C3[Si](C)(C)c3cc(N(C)C)ccc32)cc1-n1cc(CCC(=O)NCCO)nn1 is ___ 666

Fill in: λem of COc1ccc(N)cc1C1=C2C=CC(=[N+](C)C)C=C2[Si](C)(C)c2cc(N(C)C)ccc21 is ___ 669

Fill in: λem of COc1cc(N=[N+]=[N-])c(OC)c(C2=C3C=CC(=[N+](C)C)C=C3[Si](C)(C)c3cc(N(C)C)ccc32)c1 is ___ 669

Reference source: patent US9410958B2
